Catalogue of compounds with associated Ka
- tgt: Marasmius oreades lectin (MOA, cMOA) (Marasmius oreades)
- Sequence (Q8X123 1-293): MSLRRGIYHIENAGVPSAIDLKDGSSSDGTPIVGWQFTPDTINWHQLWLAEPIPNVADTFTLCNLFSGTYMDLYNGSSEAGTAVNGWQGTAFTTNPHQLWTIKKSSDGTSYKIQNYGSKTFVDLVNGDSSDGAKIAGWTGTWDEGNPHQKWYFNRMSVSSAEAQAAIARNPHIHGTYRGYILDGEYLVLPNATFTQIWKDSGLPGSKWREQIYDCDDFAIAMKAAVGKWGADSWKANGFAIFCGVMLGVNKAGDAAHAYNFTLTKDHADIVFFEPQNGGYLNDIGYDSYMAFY
- test-name: Isothermal titration calorimetry, MOA of Example 1 (proteolyzed, clipped form, cMOA)
- Type: binding
- condition-notes: isothermal titration calorimetry, Table 3

compound	Ka
CC(=O)N[C@H]1C(O)O[C@H](CO)[C@@H](O[C@@H]2O[C@H](CO)[C@H](O)[C@H](O)[C@H]2O)[C@@H]1O (stereo partly shown)	0.290 10^3 M^−1
OCC1OC(OC2C(O)OC(CO)C(O)C2O)C(O)C(O)C1O (stereo not shown)	<0.1 10^3 M^−1
CC(=O)N[C@H]1C(O)O[C@H](CO)[C@@H](O[C@@H]2O[C@H](CO)[C@H](O)[C@H](O[C@H]3O[C@H](CO)[C@H](O)[C@H](O)[C@H]3O)[C@H]2O)[C@@H]1O (stereo partly shown)	9.753 10^3 M^−1
CO[C@@H]1O[C@H](CO)[C@@H](O)[C@H](O[C@@H]2O[C@H](CO)[C@H](O)[C@H](O)[C@H]2O)[C@H]1NC(C)=O	0.214 10^3 M^−1
OC[C@H]1O[C@H](O[C@H]2[C@@H](O)[C@@H](CO)OC(O)[C@@H]2O)[C@H](O)[C@@H](O)[C@H]1O (stereo partly shown)	5.48 10^3 M^−1
C[C@@H]1O[C@@H](O[C@H]2C(O)O[C@H](CO)[C@H](O)[C@@H]2O[C@H]2O[C@H](CO)[C@H](O)[C@H](O)[C@H]2O)[C@@H](O)[C@H](O)[C@@H]1O (stereo partly shown) [B trisaccharide, Galα1,3[Fucα1,2]Gal]	27.8 10^3 M^−1
CC1OC(OC2C(OC3C(CO)OC(O)C(O)C3O)OC(CO)C(O)C2O)C(O)C(O)C1O (stereo not shown)	.548 10^3 M^−1
OC[C@H]1O[C@@H](O[C@H]2[C@H](O)[C@@H](O)C(O)O[C@@H]2CO)[C@H](O)[C@@H](O)[C@H]1O (stereo partly shown)	0.197 10^3 M^−1
OCC1OC(OC2C(CO)OC(O)C(O)C2O)C(O)C(O)C1O (stereo not shown)	<0.1 10^3 M^−1
CO[C@H]1O[C@H](CO)[C@H](O)[C@H](O)[C@H]1O [Me-α-Gal, Methyl α-galactopyranoside]	0.123 10^3 M^−1

Source: patent US6958321B2
